# tested target: T1, CLL-1 on U937 cells (human, UniProt Q5QGZ9 1-265)
# T1 construct: whole, on cells; also called CLEC12A; Clec12A
# T1 sequence: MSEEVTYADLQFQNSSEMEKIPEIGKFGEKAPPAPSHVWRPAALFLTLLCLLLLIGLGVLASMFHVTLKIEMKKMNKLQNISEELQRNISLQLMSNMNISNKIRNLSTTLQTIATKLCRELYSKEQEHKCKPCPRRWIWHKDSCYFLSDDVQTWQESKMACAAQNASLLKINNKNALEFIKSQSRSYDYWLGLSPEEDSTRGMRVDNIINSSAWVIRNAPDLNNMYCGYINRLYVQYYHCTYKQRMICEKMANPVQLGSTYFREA
# procedure summary: flow cytometry on U937 cells, VHH in 3-fold dilutions, detected with a-His-PE; percent of cells positive
metric name: % binding at 1.4 ng/ml (%)
Answers are plain numbers, in %.

Below are worked cases with known answers.
# binder, metric name, unit descriptor, result number
measured = [
    ("VHH clone 2F5 (VHH, Includes myc and His tags) VHH: QVQLQQSGGGLAQTGGSLILSCAASGSIFAINEINLMGWYRQAPGKQRELVAACASDGNTYYADSVKGRFTISRDNAEKTVYLQMNNLKPDDTAVYYCDANSRGNYYSGQGTQVTVSS", "% binding at 1.4 ng/ml", "%", 4.6),
    ("VHH clone 2H3 (VHH, Includes myc and His tags; also called 2H3 VHH-Myc-His; VHH 2H3) VHH: QVQLQESGGGLVQAGGSLRLSCVASGSIRSINVMGWYRQAPGKQRELVAACASDGNTYYADSVKGRFTISRDNAEKTVYLQMNNLKPDDTAVYYCDANSRGNYYSGQGTQVTVSS", "% binding at 1.4 ng/ml", "%", 6.2),
    ("VHH clone 1G6 (VHH, includes myc and His tags; also called 2G11; 2H2) VHH: QVQLQQSGGGLVQAGGSLRLSCAASGSIFAINEINLMGWYRQAPGKQRELVAACASDGNTYYADSVKGRFTISRDNAEKTVYLQMNNLKPDDTAVYYCDANSRGNYYSGQGTQVTVSS", "% binding at 1.4 ng/ml", "%", 6),
]

VHH clone 1H1 (VHH, includes myc and His tags; also called 2F4) VHH: QVQLQESGGGLVQPGGSLRLSCAASGFTFNSYAMTWVRQAPGKGLEWVSDINSGGGSTNYADSVKGRFTISRDNAKNTLYLQMNSLKPEDTAVYYCATELRGSDYYRGPIREYAYWGQGTLVTVSS has a reported % binding at 1.4 ng/ml of 0.6
